# method-description: Plasma protein binding in human assessed as fraction unbound
# Format: ADME, cell-free
measurement-label: fraction unbound
Give the figure by itself; no unit, no explanation.

Item CNC(=O)c1cnc2cc(OC)c(OCN3CCN(C)CC3)cc2c1Nc1ccccc1 has what recorded fraction unbound?
0.51

Item COc1cc2ncc(C(=O)N(C)C)c(Nc3ccc(Cl)cc3F)c2cc1OC has what recorded fraction unbound?
0.066

Item CNc1nc2nc3c1[nH]c(=O)n3Cc1cccc(c1)OCCOCCO2 has what recorded fraction unbound?
0.077

Item CNC(=O)c1cnc2cc(OC)c(OC)cc2c1Nc1ccccc1 has what recorded fraction unbound?
0.091

Item CN(C)c1nc(-c2ccccc2)c2ccccc2n1 has what recorded fraction unbound?
0.001

Item CN(C)CCc1ccc(-c2nc(N)nc3ccccc23)cc1 has what recorded fraction unbound?
0.041

Item CNC(=O)c1cnc2cc(OC)c(OC)cc2c1Oc1ccccc1 has what recorded fraction unbound?
0.147

Item CNC(=O)c1cnc2cc(OC)c(OC)cc2c1Nc1ccccc1CCS(C)(=O)=O has what recorded fraction unbound?
0.22

Item Nc1nc(-c2ccccc2)c2ccccc2n1 has what recorded fraction unbound?
0.051

Item CNc1nc(OCCOC)nc2c1[nH]c(=O)n2Cc1ccccc1 has what recorded fraction unbound?
0.11

Item CNc1nc2nc3c1[nH]c(=O)n3Cc1cccc(c1)OCCCCCO2 has what recorded fraction unbound?
0.019

Item CNc1nc2nc3c1[nH]c(=O)n3Cc1cccc(c1)OCCCCO2 has what recorded fraction unbound?
0.034

Item COc1cc2ncc(C(N)=O)c(Nc3ccc(Cl)cc3F)c2cc1OC has what recorded fraction unbound?
0.034

Item CNc1nc2nc3c1[nH]c(=O)n3Cc1cccc(c1)OCCNC(=O)CO2 has what recorded fraction unbound?
0.415

Item CNC(=O)c1cnc2cc(OC)c(OC)cc2c1Nc1ccc(Cl)cc1F has what recorded fraction unbound?
0.039

Item CNC(=O)c1cnccc1Nc1ccc(Cl)cc1F has what recorded fraction unbound?
0.089

Item CNc1nc(-c2ccccc2)c2ccccc2n1 has what recorded fraction unbound?
0.009

Item CNC(=O)c1cnc2ccccc2c1Nc1ccc(Cl)cc1F has what recorded fraction unbound?
0.062

Item CNc1nc2nc3c1[nH]c(=O)n3Cc1cccc(c1)OCCN(C)C(=O)CO2 has what recorded fraction unbound?
0.285

###

# method-description: physchem
# experimental-parameters: buffer, pH 7.4
We use 3 as the dividing line for logD: on or above the line is true (1), below is false (0).

API: above_or_equal(metric=logD, cutoff=3) for item CNc1nc2nc3c1[nH]c(=O)n3Cc1cccc(c1)OCCN(C)C(=O)CO2
false (0)

API: above_or_equal(metric=logD, cutoff=3) for item CNC(=O)c1cnc2cc(OC)c(OC)cc2c1Nc1ccccc1
false (0)

API: above_or_equal(metric=logD, cutoff=3) for item CNC(=O)c1cnc2cc(OC)c(OC)cc2c1Nc1ccccc1CCS(C)(=O)=O
false (0)

API: above_or_equal(metric=logD, cutoff=3) for item CNc1nc(OCCOC)nc2c1[nH]c(=O)n2Cc1ccccc1
false (0)

API: above_or_equal(metric=logD, cutoff=3) for item Nc1nc(NC2CC2)cc(-c2cccc(Cl)c2Cl)n1
true (1)

API: above_or_equal(metric=logD, cutoff=3) for item C[C@H](Oc1cc(-c2cnn(C3CCNCC3)c2)cnc1N)c1c(Cl)ccc(F)c1Cl
false (0)

API: above_or_equal(metric=logD, cutoff=3) for item CNc1nc2nc3c1[nH]c(=O)n3Cc1cccc(c1)OCCCCCO2
true (1)

API: above_or_equal(metric=logD, cutoff=3) for item CN(C)CCc1ccc(-c2nc(N)nc3ccccc23)cc1
false (0)

API: above_or_equal(metric=logD, cutoff=3) for item CNC(=O)c1cnc2ccccc2c1Nc1ccc(Cl)cc1F
true (1)

API: above_or_equal(metric=logD, cutoff=3) for item CN(C)c1nc(-c2ccccc2)c2ccccc2n1
true (1)

API: above_or_equal(metric=logD, cutoff=3) for item COc1cc2ncc(C(N)=O)c(Nc3ccc(Cl)cc3F)c2cc1OC
true (1)
